The measurements presented in this section are drawn from paper PMC5540273.

Entries annotated with measured %Inh
- Tested on: CDK11
- Construct: gene CDK19
- Assay context: concentration: 1 μM, replicates: in singlicate; n = 1;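 further: KINOMEscan kinase panel screen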
Give just the numeric value; % need not be written.

Worked examples follow.
[[record]]
compound = "CS(=O)(=O)Cc1ccc(Nc2nccc(-c3c(-c4cccc(NC(=O)C5CCCCC5)c4)nn4ncccc34)n2)cc1 [GSK350559]"
experimental_system = "CDK11"
test_result = 0

[[record]]
compound = "COc1ccc2cc(-c3nc(-c4ccccc4C(C)C)[nH]c3-c3ccncc3)ccc2c1 [SB-660566]"
experimental_system = "CDK11"
test_result = 33

[[record]]
compound = "COc1ccc(Nc2nccc(N3CCC(NC(=O)C(C)c4ccc(Cl)cc4)CC3)n2)cc1 (centres unmarked) [GSK1379812]"
experimental_system = "CDK11"
test_result = 63

[[record]]
compound = "COc1ccc(Nc2nccc(-c3ccc(NC(=O)c4cc5cc(F)ccc5[nH]4)cc3)n2)cc1 [GSK1229496]"
experimental_system = "CDK11"
test_result = 22

[[record]]
compound = "O=c1cc(N2CCOCC2)nc2n(Cc3ccccc3F)ccn12 [GSK2297428]"
experimental_system = "CDK11"
test_result = 0

[[record]]
compound = "Cc1ccc(NC(=O)c2ccc(Cl)cc2)cc1-c1ccc(C(=O)Nc2ccncc2)cc1 [GSK1398467]"
experimental_system = "CDK11"
test_result = 2

[[record]]
compound = "CNc1nc(-c2ccc3c(N)n[nH]c3c2)cc(N2C[C@@H](C(=O)NC3CCCCC3)OC[C@H]2C)n1 [GSK2375584]"
experimental_system = "CDK11"
test_result = 16


// field: %Inh; key: Cc1ccc(NC(=O)Nc2ccc(Cl)cc2)cc1-c1ccc(C(=O)Nc2ccncc2)cc1 [GSK1398472] ; value = 8

###

Entries annotated with measured %Inh
- System: IKK-beta
- Construct: gene IKBKB
- Assay context: concentration: 1 μM, replicates: in singlicate; n = 1
Give just the numeric value; % need not be written.

[[record]]
molecule = "O=c1cc(N2CCOCC2)nc2n(Cc3cccc(Cl)c3Cl)c3ccccc3n12 [GSK2299009]"
test_readout = "%Inh"
test_result = 0


// field: %Inh; key: CN1c2ccc(-c3ccc(C(N)=O)cc3)cc2-c2[nH]ncc2S1(=O)=O ; value = 0

###

Entries annotated with measured %Inh
- Tested on: BRSK1
- Assay context: concentration: 1 μM, replicates: in singlicate; n = 1
Report field: quantity (unit follows the number).

Worked examples follow.
[[record]]
compound = "Fc1ccc(-c2nn3cccc(F)c3c2-c2ccncc2)cc1 [GW475620]"
experimental_system = "BRSK1"
test_readout = "%Inh"
test_result = "0%"

[[record]]
compound = "CC(C)c1cc(-c2ccc3c(N)n[nH]c3c2)nc(N)n1 [GSK2250882]"
experimental_system = "BRSK1"
test_readout = "%Inh"
test_result = "40%"


Summary line: O=C1NC(=O)C(c2ccc(Cl)cc2)=C1Nc1cccc(Cl)c1 [SB-317651] , BRSK1, reported %Inh = 0%

Summary line: Fc1ccc(-c2nc[nH]c2-c2ccncc2)cc1 [SB-217360] , BRSK1, reported %Inh = 0%

Summary line: CNc1cc(-c2ccc3c(N)n[nH]c3c2)nc(N)n1 [GSK2224810] , BRSK1, reported %Inh = 2%

Summary line: CNc1nc(-c2ccc3c(N)n[nH]c3c2)cc(N2C[C@@H](C(=O)NC3CCCCC3)OC[C@H]2C)n1 [GSK2375584] , BRSK1, reported %Inh = 14%

Summary line: COc1cccc(CNC(=O)NC2CCN(c3ccnc(Nc4ccc(F)cc4)n3)C2)c1 (stereo not shown) [GSK1379723] , BRSK1, reported %Inh = 0%

###

- System: MAST1
- Assay context: concentration: 1 μM, replicates: in singlicate; n = 1
Entries annotated with measured %Inh
Give just the numeric value; % need not be written.

[[record]]
mol_smiles = "CS(=O)(=O)CCNCc1nc(-c2ccc3ncnc(Nc4ccc5c(cnn5Cc5ccccc5)c4)c3c2)cs1.Cl.Cl"
test_result = 32

[[record]]
mol_smiles = "Cc1nccc(-c2c(-c3ccc(F)cc3)ncn2CCCN2CCOCC2)n1.Cl"
test_result = 71

[[record]]
mol_smiles = "Cc1c(Cn2c3ccccc3n3c(=O)cc(N4CCOCC4)nc23)cccc1C(F)(F)F"
test_result = 0


Attention now shifts to the item below.
Summary line: CSc1ccc(-c2nc3n(c2-c2ccncc2)CCC3)cc1 , MAST1, reported %Inh = 16

###

- System: CDK8
- Assay context: concentration: 1 μM, replicates: in singlicate; n = 1
Entries annotated with measured %Inh
Give just the numeric value; % need not be written.

[[record]]
compound = "COc1ccc(CSc2nnc(-c3ccc4nccn4c3)o2)cc1C(F)(F)F"
experimental_system = "CDK8"
test_result = 21

[[record]]
compound = "CNc1nc(-c2ccc3c(N)n[nH]c3c2)cc(N2C[C@@H](C(=O)NC3CCCCC3)OC[C@H]2C)n1"
experimental_system = "CDK8"
test_result = 45

[[record]]
compound = "CC(=O)c1c(C)c2cnc(Nc3ccn(C)n3)nc2n(C2CCCC2)c1=O"
experimental_system = "CDK8"
test_result = 0

[[record]]
compound = "COc1ccc(Nc2nccc(N3CCC(NC(=O)C(C)c4ccc(Cl)cc4)CC3)n2)cc1 (centres unmarked)"
experimental_system = "CDK8"
test_result = 20

[[record]]
compound = "Cl.Cl.Cl.N#Cc1ccc(CCNc2nccc(-c3cccc(CN4CCNCC4)c3)n2)cc1"
experimental_system = "CDK8"
test_result = 0

[[record]]
compound = "COc1ccc(Nc2nccc(N3CCC(NC(=O)C(C)c4ccc(Cl)cc4)C3)n2)cc1 (centres unmarked)"
experimental_system = "CDK8"
test_result = 35


// field: %Inh; key: CSc1ccc(-c2nc3n(c2-c2ccncc2)CCC3)cc1 ; value = 0

// field: %Inh; key: COc1cccc(CNC(=O)NC2CCN(c3ccnc(Nc4ccc(F)cc4)n3)C2)c1 (centres unmarked) ; value = 0

###

- System: GRK3
- Construct: gene ADRBK2
- Assay context: concentration: 1 μM, replicates: in singlicate; n = 1
Test readout: %Inh (%)
Give just the numeric value; % need not be written.

Worked examples follow.
[[record]]
compound = "Cn1cnc2c(N)ncnc21 [SKF-97623]"
test_result = 26

[[record]]
compound = "COc1cccc(NC(=O)Nc2ccc(C)c(-c3ccc(C(=O)Nc4ccncc4)cc3)c2)c1 [GSK1398474]"
test_result = 0

[[record]]
compound = "COc1cc2ncnc(Nc3cccc(Br)c3)c2cc1OC.Cl [GI230329]"
test_result = 26

[[record]]
compound = "O=c1cc(N2CCOCC2)nc2n(Cc3ccccc3F)ccn12 [GSK2297428]"
test_result = 0

[[record]]
compound = "COc1ccc(CSc2nnc(-c3ccc4c(c3)CCO4)o2)cc1"
test_result = 3

[[record]]
compound = "Cc1ccc(NC(=O)Nc2ccc(Cl)cc2)cc1-c1ccc(C(=O)Nc2ccncc2)cc1 [GSK1398472]"
test_result = 17

[[record]]
compound = "COc1ccc(Nc2nccc(-c3ccc(NC(=O)c4cc5cc(F)ccc5[nH]4)cc3)n2)cc1 [GSK1229496]"
test_result = 22

[[record]]
compound = "CS(=O)(=O)Cc1ccc(Nc2nccc(-c3c(-c4cccc(NC(=O)C5CCCCC5)c4)nn4ncccc34)n2)cc1 [GSK350559]"
test_result = 0


// field: %Inh; key: CC(=O)c1c(C)c2cnc(Nc3ccc(N4CCNCC4)cn3)nc2n(C2CCCC2)c1=O ; value = 9

// field: %Inh; key: Cc1ccc(NC(=O)Nc2ccccc2)cc1-c1ccc(C(=O)Nc2ccncc2)cc1 [GSK1398471] ; value = 0

// field: %Inh; key: CC(=O)c1c(C)c2cnc(Nc3ccn(C)n3)nc2n(C2CCCC2)c1=O ; value = 17

###

- Tested on: PIP5K1A
- Assay context: concentration: 1 μM, replicates: in singlicate; n = 1
Test readout: %Inh (%)
Give just the numeric value; % need not be written.

Worked examples follow.
[[record]]
molecule = "NS(=O)(=O)c1cccc(N/C=C2\\C(=O)Nc3ccc(S(=O)(=O)Cc4c(Cl)cccc4Cl)cc32)c1"
test_result = 0

[[record]]
molecule = "COc1ccc(Nc2nccc(N3CCC(NC(=O)C(C)c4ccc(Cl)cc4)CC3)n2)cc1 (centres unmarked)"
test_result = 0

[[record]]
molecule = "COc1nccc(-c2c(-c3ccc(F)cc3)ncn2CCCN2CCOCC2)n1"
test_result = 12

[[record]]
molecule = "CNC(=O)c1ccc(C)c(-n2c(C)cc(OCc3ccc(F)cc3F)c(Br)c2=O)c1"
test_result = 0

[[record]]
molecule = "CCn1c(-c2c(N)noc2C)nc2cnccc21"
test_result = 0


// field: %Inh; key: c1ccc(-c2ccnc3[nH]ccc23)cc1 ; value = 40

// field: %Inh; key: O=C1NC(=O)C(c2ccc(Cl)cc2)=C1Nc1cccc(Cl)c1 ; value = 0

// field: %Inh; key: COc1ccc(Nc2nccc(-c3ccc(NC(=O)c4cc5cc(F)ccc5[nH]4)cc3)n2)cc1 ; value = 37

// field: %Inh; key: Cc1ccc(NC(=O)c2ccc(Cl)cc2)cc1-c1ccc(C(=O)Nc2ccncc2)cc1 ; value = 0

// field: %Inh; key: COC(=O)C(NC(=O)NC1CCN(c2ccnc(Nc3ccc(F)cc3)n2)C1)c1ccccc1 (centres unmarked) ; value = 9

// field: %Inh; key: CC(C)c1ccc(O)cc1Nc1ccnc2ccc(C(F)(F)F)cc12 ; value = 0
